- Tested on: BDF1 mice, P388 leukemia ip, median survival T/C
- experiment-description: NCI In Vivo Anticancer Drug Screen. Data for tumor model P388 Leukemia (intraperitoneal) in B6D2F1 (BDF1) mice
- run-conditions: endpoint: median survival time; dose: 400.0 mg/kg/injection; schedule: Q04DX003 (ip); vehicle: saline
- Experimental: The antitumor activity of compounds was measured in mice bearing transplantable tumors. Survival or tumor size were measured and the results are expressed as the measurement made in the treated group (T) divided by the measurement made in the vehicle treated control group (C). The tumor model used in this assay is P388 Leukemia (intraperitoneal) in B6D2F1 (BDF1) mice
Toxic doses and inconclusive results are not listed. How the source made its calls: active means survival T/C of 150% or more; inactive means T/C below 125% in these data.
Classes used: 1 = active, 0 = inactive

compound | assigned-label
CC(C)[CH2][Sn]([CH2]C(C)C)([CH2]C(C)C)[C](C)(C)C | 0
CC(Br)C(=O)NC(CO)C(=O)O (stereo unspecified) | 0
CCOC(=O)/C(=C\c1ccc2c(c1)OCO2)NC(=O)c1ccccc1 | 0
O=S(=O)(O)C1(O)CCCCC1 | 0
CCOC(=O)C(C(=O)OCC)C(C)C | 0
CCN(CC)Cc1cc(Nc2c3ccc([N+](=O)[O-])cc3nc3ccc(OC)cc23)ccc1O | 0
C[Si](C)(C)C1([Si](C)(C)C)CO1 | 0
Cc1ccc(NC(=O)Nc2ccccc2Cl)cc1Cl | 0
O=C1C=C(C2CCCCC2)C(=O)C2CCCCC12 (stereo unspecified) | 0
O=C(O)C1CC[N-]CC1.O=C(O)C1CC[N-]CC1.O=C(O)C1CC[N-]CC1.O=C(O)C1CC[N-]CC1.[Br][Rh][Br] | 0
CCOC(=O)CCOCOCCC(=O)OCC | 0
O=C1c2cccc(O)c2C(=O)c2c(OC3OC(CO)C(OC4OC(CO)C(O)C(O)C4O)C(O)C3O)cccc21 (stereo unspecified) | 0
CC1(C)N=C(N)N=C(N)N1c1ccc(CNC(=O)Nc2ccc(S(=O)(=O)F)cc2)cc1 | 1
CCCCCCC(=O)/C=C/c1cccc(Cl)c1 | 0
CNC(C)(C)CO | 0
O=Cc1c[nH]c(=O)[nH]c1=O | 0
CC(=O)NC1(C(=O)O)CSSC1 | 0
NC(=O)n1nccc1N | 0
O=C(O)CSC(CC(=O)O)C(F)(F)C(F)(F)C(F)(F)F (stereo unspecified) | 0
C(#CCN1CCOCC1)CCCN1CCOCC1 | 0
OCC1(O)CCC1 | 0
CC(=O)NNC(=O)c1ccncc1 | 0
O=[N+]([O-])c1ccc(N/N=C\c2ccc3ccccc3n2)cc1 | 0
O=C1NC(=O)C(=O)N1 | 0
ClCC[N+]12CC[N+](CCCl)(CC1)C2 | 1
COC1OC(CNC(=O)N(C)N=O)C(O)C(O)C1O (stereo unspecified) | 1

src = PubChem BioAssay AID328
